# system: CXCR4 (Homo sapiens)
# Sequence (P61073 whole entry): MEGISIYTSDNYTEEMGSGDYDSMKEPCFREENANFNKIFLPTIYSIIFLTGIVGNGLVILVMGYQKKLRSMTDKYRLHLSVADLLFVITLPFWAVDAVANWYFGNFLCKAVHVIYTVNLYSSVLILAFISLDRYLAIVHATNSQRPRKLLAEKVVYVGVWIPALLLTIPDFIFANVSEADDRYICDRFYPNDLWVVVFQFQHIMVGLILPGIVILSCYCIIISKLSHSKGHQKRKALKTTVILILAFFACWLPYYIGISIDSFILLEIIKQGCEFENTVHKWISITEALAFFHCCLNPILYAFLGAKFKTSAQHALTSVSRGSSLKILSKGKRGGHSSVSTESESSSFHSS
# measurement.notes: Ca2+-assay method 2 (Flexstation, SDF-1 induced calcium mobilization)
# Assay type: cell-based
# Design: expressed in transfected cells; host or cells: mouse pre-B cell line 300-19
# details: method 2 (Ex. 54-160), mouse pre-B cell line 300-19 with human CXCR4, 10 nM SDF-1; read-out: IC50 (nM) Ca^2+ assay
Bridge positions count the residues as written; N and C are the ends. Square brackets hold non-standard residues; d marks the D form. Peptide text beside a SMILES is read from it. 2Nal = N[C@@H](Cc1ccc2ccccc2c1)C(=O)O; Cit = NC(=O)NCCC[C@H](N)C(=O)O
recorded.endpoint: IC50 (nM)
Express your answer in nM, writing the number without its unit.

Quick one: IC50 of N=C(N)NCCC[C@@H]1NC(=O)[C@@H]2CSSC[C@H](NC(=O)[C@H](Cc3ccc4ccccc4c3)NC(=O)[C@H](CCCNC(=N)N)NC(=O)[C@H](CCCNC(=N)N)NC(=O)[C@H]3CCCN3C(=O)CNC1=O)C(=O)N[C@@H](Cc1ccc(O)cc1)C(=O)N[C@@H](Cc1ccc(O)cc1)C(=O)N[C@@H](CCCCN)C(=O)N1CCC[C@@H]1C(=O)N1CCC[C@H]1C(=O)N[C@@H](Cc1ccc(O)cc1)C(=O)N[C@@H](CCCNC(=N)N)C(=O)N[C@@H](CCCNC(N)=O)C(=O)N2 [Ex. 59] (cyclo(YR[Cit]CRG[dP]RR[2Nal]CYYK[dP]P); disulfide 4-11) ?
7.8
